src = paper PMC3210390

- targetOrSystem: T1, Tfam HMG-box B (Homo sapiens, UniProt Q00059 153-222)
- T1 sequence: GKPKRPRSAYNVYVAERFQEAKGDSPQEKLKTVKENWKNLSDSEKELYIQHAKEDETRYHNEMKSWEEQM
- runDescription: intrinsic Trp fluorescence quenching
measure: Kd (nM)
Give the value, in units of nM, as a plain number.

Q) Value lookup for Kd; key = LSP 28 bp (dsDNA) DNA 1: TGTTAGTTGGGGGGTGACTGTTAAAAGT DNA 2: ACTTTTAACAGTCACCCCCCAACTAACA
A) 411
